The origin of these recorded values is the supplement of paper PMC9170038.

Answer each item with its documented apparent KD of MS2 coat protein.
tested on: MS2 coat protein; test: apparent KD of MS2 coat protein; designed switch direction (-1 OFF switch, 1 ON switch): 1; higher = weaker reporter binding; settings: input ligand: microRNA oligo, concentration not stated
Output spec: scalar in µM, unitless text.

# input Any idea what its apparent KD of MS2 coat protein is? The sequence is AGCCGAGACACAGGAUAUAGAUGUUUACAUGAGGAUCACCCAUGUAGCAACACGUGGUAGUGAUUCUAGAAGGGUGCUCGGCGC [Omei SS(NG)2 Cv11] (Eterna round: R96, puzzle: Same State NG 2)
# output 0.116

# input Any idea what its apparent KD of MS2 coat protein is? The sequence is GCCGCGUUUCACGCCUACAUGAGGAUCACCCAUGUAUGUAGGCAGGAUAUCGUUUGCUUUGCAAACGAGAAGGGCUGUAGUGGC [salish99_SSNG3_R04_007] (Eterna round: R96, puzzle: Same State NG 3)
# output 0.0923

* * *

tested on: K4 kissing-loop RNA reporter; experiment: apparent KD of K4 kissing-loop reporter; higher = weaker reporter binding; settings: Eterna round: R107; input ligand: theophylline 20 uM
Answer each item with its documented apparent KD of K4 kissing-loop reporter.
Output spec: scalar in nM, unitless text.

# input Any idea what its apparent KD of K4 kissing-loop reporter is? The sequence is UGGCGUAGAACCGCCGAAUCGCUGUGAGAAGGAGCGGUAAAAUUGCCAGGUAGGUCGCUCACAGCCUCACAGUGAUGUUGUGGGA [Cequralaza]
# output 290

# input Any idea what its apparent KD of K4 kissing-loop reporter is? The sequence is ACCUACCAUUAGUGAUGUUAAUGGACGGAAGGAGCGCGGAUAUCCGCAGGUAGGUCGCCGAAGGCUAGACAUUGUCUAGCCAUUA [AK1.2 SS Arginine A]
# output 166

# input Any idea what its apparent KD of K4 kissing-loop reporter is? The sequence is ACCCUGGGUCCCGAAAGGGACCCAGGGAGUGAGGAUAUGUGGAAACACAGAAGGCACAGCACAGUGAUGUUGUGCGACGAAAGUC [#02 K4 FMN A Same State]
# output 175

# input Any idea what its apparent KD of K4 kissing-loop reporter is? The sequence is UGUCAUUGGUCGGCCGCCACUUCAUGUAGAGUGAUGUUCUGUAAGACGGAUCGAAAGAUCUGUCGAAGGACCGGGACCGAUGACU [FiskerMod 13 - Jieux - Same State - Tryptophan B]
# output 868

# input Any idea what its apparent KD of K4 kissing-loop reporter is? The sequence is UGGACCAAGGAGUGAUGUUCCAAAUGUGAUACCAGCCACGAAAGUGGCCCUUGGCAGCACUGCCAGGACGAAAACGUCCGGUCCU [#SwitchBubble 12 #StaticStem #K4Early]
# output 777

# input Any idea what its apparent KD of K4 kissing-loop reporter is? The sequence is UGUAUGUGAUUUGAUACCAGACAAGCAGGUGUGACAAGAGUGAUGUUCUUGAUGGUUUGGGUCCCUUGGCAGCAAAUCGCAUACU [KL-SSTheoB16]
# output 141

# input Any idea what its apparent KD of K4 kissing-loop reporter is? The sequence is GCUAUGGUAGGAAGGAGCGCUUAAUUACUAAUAAGAGUGAUGUUCGAUAGUAGGUAUUUAUAGCAGGUAGGUCGCCUACUAUAGC [KL-Arg B23]
# output 244

# input Any idea what its apparent KD of K4 kissing-loop reporter is? The sequence is GUGUGACUAGUGAUGUUGGUUGCGUGGGAAGGAGCGCAGUAAAAUGCAGGUAGGUCGCCCGUAUCUCUGAUAAAAGAUUAAUUCA [KL-SSArg-A10]
# output 137

# input Any idea what its apparent KD of K4 kissing-loop reporter is? The sequence is GGAUCCACCAGUGAUGUUGGAGAAAACUCUAAGGAUAUGACGAAAGUCAGAAGGUAGUAGACUGGACAAAGUCCGGUCGGAUCCA [FmnA 23 U30+A56]
# output 661

# input Any idea what its apparent KD of K4 kissing-loop reporter is? The sequence is AAGCAGUCACUCAAAGCCAUCGAAGAUGGUCGAGGACCGGUACGGCCGCCACUCGGAGUGAUGUUCCGAAGACUGCAAAAUAAAA
# output 411

# input Any idea what its apparent KD of K4 kissing-loop reporter is? The sequence is UGGACAUGACUCGAUAAGAGUCAAUGGGAUACCAGUGACGAAAGUCACCCUUGGCAGCUCAACUGCCAGUGAUGUUGGUAGUCCU [Astros-Elimod]
# output 157

# input Any idea what its apparent KD of K4 kissing-loop reporter is? The sequence is UGGAUAUAGUGAUGUUAUAUAGAGAUGGAUACCAGUUGAGAGAAUAGCCCUUGGCAGCCGAAAGAAGUAUCAUUAGAGAAGAAUG [ExTheophyl.Ak]
# output 219

* * *

tested on: K4 kissing-loop RNA reporter; test: apparent KD of K4 kissing-loop reporter; higher = weaker reporter binding; settings: Eterna round: R107; input ligand: tryptophan 2.4 mM;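 note: bound reporter read as fluorescence of individual clusters on recovered sequencing chips by microscopy, with normalized cluster intensities fitted with a binding model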
readout: apparent KD of K4 kissing-loop reporter (nM)
Output spec: scalar in nM, unitless text.

# input Any idea what its apparent KD of K4 kissing-loop reporter is? The sequence is GCUAUGGUAGGAAGGAGCGCUUAAUUACUAAUAAGAGUGAUGUUCGAUAGUAGGUAUUUAUAGCAGGUAGGUCGCCUACUAUAGC [KL-Arg B23]
# output 174

# input Any idea what its apparent KD of K4 kissing-loop reporter is? The sequence is GCCGUACGCAUGGAUACCAGAUCUAGACGCUUAGUGAUGUUAAGUAAUCUGGUUAGACCGAUCCCUUGGCAGCCAUGCGUACGGC
# output 200

# input Any idea what its apparent KD of K4 kissing-loop reporter is? The sequence is GUGACCUACUCAGGAUAUCCGCAGUGAUGUUGCGGUUGGCCUGAGCGACAUGAAAAUCUUACUACAGGAGAAGGGAGAGGGUUAC [Leanteti]
# output 91.5

# input Any idea what its apparent KD of K4 kissing-loop reporter is? The sequence is AGAGUUAUAUGAGGAUAUGAGAUAGUUAAUGAGUGAGUUAUAGUGUAGUUUGGUUAGUGAUGUUAUUUAGAAGGCGUGAGUGAUG [reefmullin]
# output 83.1

# input Any idea what its apparent KD of K4 kissing-loop reporter is? The sequence is UUUAUAUAGUCGGCCGCCACUGAUUUUUUUAUAUGUUUAUGUUUAUACGAGUGAUGUUCGAUAUACAGGACCGGGACUUUUGUUA [JR_SSTryptoB_Sub018]
# output 180

# input Any idea what its apparent KD of K4 kissing-loop reporter is? The sequence is AGAUGUCUCUGGGAUACCAGUCGGAGUCUCAGGGCUCGGAGUGAUGUUCUGGGAUGUUUCGGCCCUUGGCAGCCCUGGGACUCCC [#2 Exclusion - Theophylline B Attempt #27 (HarryS)]
# output 542

* * *

Answer each item with its documented apparent KD of MS2 coat protein.
system: MS2 coat protein; assay: apparent KD of MS2 coat protein; higher = weaker reporter binding; details: Eterna round: R101; input ligand: FMN 200 uM
Output spec: scalar in µM, unitless text.

# input Any idea what its apparent KD of MS2 coat protein is? The sequence is GGGUACAUCGGAGGAUAUCAUGUAAAUACAUGAGGAUCACCCAUGUCGAUGGAGACAUCGGAGAUUGAGAAGGCCGAUGUACCG (puzzle (switch architecture): Same State NG 2)
# output 0.00842

# input Any idea what its apparent KD of MS2 coat protein is? The sequence is AAUAAAAUUCUAGGAUAUGACUCCGAAACGGAGUCAGAAGGAGGAUCACCCUUUCAAAGCUCAGCGUCGAAAGACGCUGAGCAA [#SharedSequence - ExNG1-19] (puzzle (switch architecture): Exclusion NG 1)
# output 1.16

# input Any idea what its apparent KD of MS2 coat protein is? The sequence is GCAGCUAAUGCAGGAUAUCAGCACGUGUAGUGCUGAGAAGGGCACAUGAGGAUUCUGACUGUGAUCAAUUAAUAUUAAUGCUGC [salish99#hingeEx3_55-58_005] (puzzle (switch architecture): Exclusion NG 1)
# output 0.0148

# input Any idea what its apparent KD of MS2 coat protein is? The sequence is CGCUAUUACAUGAGGAUCACCCAUGUAUAUAUGGGAUUUUCGUAGGAUAUGCAGAAGAUUAAAGUGCAGAAGGACGGAAUAGCG [JR #DistanceClose #Static #NP SSNG3 Sub066] (puzzle (switch architecture): Same State NG 3)
# output 0.0319

* * *

system: MS2 coat protein; assay: apparent KD of MS2 coat protein; higher = weaker reporter binding; details: Eterna round: R107; input ligand: theophylline 20 uM
Record class 1 whenever apparent KD of MS2 coat protein is at 40 nM or higher; record class 0 when lower.

# input Could you please find out whether CAAUUUCGAAUAGAUACCAGCUGUCAUAAACACAUGAGGAUCACCCAUGUGCUUCUCGUCAGCCCUUGGCAGCUAUAACUAGAGC [theeternabot_sameState_MS2_Theo_B_40] has apparent KD of MS2 coat protein that meets 40 nM or exceeds it?
# output class 0

# input Could you please find out whether GAUCGAAAUAACGUCUAGGAAAACUAGACGCGAGGACCGGUACGGCCGCCACUCGGGUGGCACAUGAGGAUCACCCAUGUAGAUC [#SwitchBubble 5 #GuTurnoff #MS2 3'] has apparent KD of MS2 coat protein that meets 40 nM or exceeds it?
# output class 1

# input Could you please find out whether AAUGUAUUCCACAUGAGGAUCACCCAUGUGCGAGGACCGGUACGGCCGCCACUCGGUGUUGGGAUCUGUUCUGAAUACAUUAAUG [XTryp A #23] has apparent KD of MS2 coat protein that meets 40 nM or exceeds it?
# output class 0

# input Could you please find out whether UCGCAUUGCUGCGAUACCAGACAUGAGGAUCACCCAUGUACCAAGGUACGAAAAUAACAUGUCCCUUGGCAGCGCAGCAAUGCGU [MAT - Exclusion Theophlline B - Mod of Eli - D5] has apparent KD of MS2 coat protein that meets 40 nM or exceeds it?
# output class 0

# input Could you please find out whether UUCGUUUGCGGAAGGAGCGACGGACAUCGGUGACCCACGCACAUGAGGAUCACCCAUGUACGUCAGGUAGGUCGCCGCUAAGAGU [XArg-B4] has apparent KD of MS2 coat protein that meets 40 nM or exceeds it?
# output class 1
